- experimental_target: T1, recombinant human PCSK9 protein, His-tagged (Immunogen A, hPCSK9-His) (human, UniProt Q8NBP7 31-692, limits assumed, biotin-labelled in the ELISA and blocking assays (Biotin labeling kit))
- T1 construct: also called human PCSK9-His; recombinant hPCSK9-His; not shown: His tag
- assay_protocol: ELISA, biotin-hPCSK9-His on streptavidin plate; antibody 0 nM (blank)

| binder | OD450 nm (OD450 nm) |
| --- | --- |
| 139G1C5, chimeric anti-PCSK9 mAb purified from hybridoma (antibody, V domains shown, From Harbour H2L2 mice: human variable regions, rat constant regions) VH: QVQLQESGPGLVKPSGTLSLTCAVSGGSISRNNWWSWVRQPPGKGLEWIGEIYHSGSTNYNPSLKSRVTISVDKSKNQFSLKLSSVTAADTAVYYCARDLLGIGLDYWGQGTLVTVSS VL: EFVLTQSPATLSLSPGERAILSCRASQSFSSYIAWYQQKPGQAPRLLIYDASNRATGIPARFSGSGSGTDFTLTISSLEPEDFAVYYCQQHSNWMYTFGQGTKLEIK | 0.22 |
| 152G2F7, chimeric anti-PCSK9 mAb purified from hybridoma (antibody, V domains shown, From Harbour H2L2 mice: human variable regions, rat constant regions) VH: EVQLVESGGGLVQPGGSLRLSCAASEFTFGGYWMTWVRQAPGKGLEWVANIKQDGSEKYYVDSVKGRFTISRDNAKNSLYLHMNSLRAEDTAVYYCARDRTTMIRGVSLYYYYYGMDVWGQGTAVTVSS VL: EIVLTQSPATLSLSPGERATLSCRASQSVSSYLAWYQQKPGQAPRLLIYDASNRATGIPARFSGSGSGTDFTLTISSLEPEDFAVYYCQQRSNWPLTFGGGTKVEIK | 0.17 |
| 103C11E8, chimeric anti-PCSK9 mAb purified from hybridoma (antibody, V domains shown, From Harbour H2L2 mice: human variable regions, rat constant regions) VH: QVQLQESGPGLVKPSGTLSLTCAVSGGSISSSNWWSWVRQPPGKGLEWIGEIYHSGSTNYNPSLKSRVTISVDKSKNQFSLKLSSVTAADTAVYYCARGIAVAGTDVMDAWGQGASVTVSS VL: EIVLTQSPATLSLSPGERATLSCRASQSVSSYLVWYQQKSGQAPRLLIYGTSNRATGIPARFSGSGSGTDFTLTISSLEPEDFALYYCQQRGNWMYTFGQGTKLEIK | 0.14 |
| 74C10A8, chimeric anti-PCSK9 mAb purified from hybridoma (antibody, V domains shown, From Harbour H2L2 mice: human variable regions, rat constant regions) VH: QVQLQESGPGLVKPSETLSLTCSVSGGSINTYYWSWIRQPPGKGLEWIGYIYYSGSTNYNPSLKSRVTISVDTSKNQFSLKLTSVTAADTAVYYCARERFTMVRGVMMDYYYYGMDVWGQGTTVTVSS VL: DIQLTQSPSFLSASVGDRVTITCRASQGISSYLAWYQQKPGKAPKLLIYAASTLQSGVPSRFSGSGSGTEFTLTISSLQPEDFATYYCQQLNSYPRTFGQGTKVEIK | 0.22 |
